# Test system: MDA-MB-231 cells
# protocol.description: cells
# study.conditions: Homo sapiens, MDA-MB-231, 72 h, read-out: TGI
Label 1 when IC (TGI) is at or above 0.004 µM; anything below gets 0.

Recorded results for 5 compounds are shown here.
>>> label_class("COc1ccc2[nH]c3c(c2c1)C[C@@H](CO)N[C@]31CS[C@@H]2c3c(OC(C)=O)c(C)c4c(c3[C@H](COC1=O)N1[C@@H]2[C@H]2c3c(cc(C)c(OC)c3O)C[C@@H]([C@@H]1C#N)N2C)OCO4 [Compound 18-S]")
0
>>> label_class("COc1c(C)cc2c(c1O)[C@@H]1[C@@H]3[C@@H]4SC[C@]5(N[C@H](CO)Cc6c5oc5ccccc65)C(=O)OC[C@@H](c5c6c(c(C)c(OC(C)=O)c54)OCO6)N3[C@@H](C#N)[C@H](C2)N1C [Compound 38-S]")
1
>>> label_class("COc1c(C)cc2c(c1O)[C@@H]1[C@@H]3[C@@H]4SC[C@]5(NCCc6c5oc5ccccc65)C(=O)OC[C@@H](c5c6c(c(C)c(OC(C)=O)c54)OCO6)N3[C@@H](C#N)[C@H](C2)N1C [Compound 31]")
1
>>> label_class("COc1c(C)cc2c(c1O)[C@@H]1[C@@H]3[C@@H]4SC[C@]5(NCCc6c5oc5ccccc65)C(=O)OC[C@@H](c5c6c(c(C)c(OC(C)=O)c54)OCO6)N3[C@@H](O)[C@H](C2)N1C [Compound 32]")
1
>>> label_class("COc1ccc2[nH]c3c(c2c1)C[C@H](C(=O)O)N[C@]31CS[C@@H]2c3c(OC(C)=O)c(C)c4c(c3[C@H](COC1=O)N1[C@@H]2[C@H]2c3c(cc(C)c(OC)c3O)C[C@@H]([C@@H]1O)N2C)OCO4 [Compound 29-R]")
1

I'd appreciate it if you could say whether COc1ccc2[nH]c3c(c2c1)C[C@H](C(=O)O)N[C@]31CS[C@@H]2c3c(OC(C)=O)c(C)c4c(c3[C@H](COC1=O)N1[C@@H]2[C@H]2c3c(cc(C)c(OC)c3O)C[C@@H]([C@@H]1C#N)N2C)OCO4 [Compound 28-R] has IC (TGI) at least equal to 0.004 µM. 1

----------
# Tested on: A549 cells
# protocol.description: cells
# study.conditions: A549; 72 hours treatment; SRB
Below: a set of entries, each annotated with reported TGI.
Answer format: numeric, Molar implied, no suffix.

Example results:
>>> observed_result("COc1ccc2[nH]c3c(c2c1)C[C@@H](CO)N[C@]31CS[C@@H]2c3c(OC(C)=O)c(C)c4c(c3[C@H](COC1=O)N1[C@@H]2[C@H]2c3c(cc(C)c(OC)c3O)C[C@@H]([C@@H]1O)N2C)OCO4")
"3.31E−09"
>>> observed_result("COc1ccc2[nH]c3c(c2c1)C[C@H](CO)N[C@]31CS[C@@H]2c3c(OC(C)=O)c(C)c4c(c3[C@H](COC1=O)N1[C@@H]2[C@H]2c3c(cc(C)c(OC)c3O)C[C@@H]([C@@H]1O)N2C)OCO4")
"3.56E−09"
>>> observed_result("COc1ccc2[nH]c3c(c2c1)CCNC31CSC2c3c(OC(C)=O)c(C)c4c(c3C(COC1=O)N1C(C#N)C3Cc5cc(C)c(OC)c(O)c5C(C21)N3C)OCO4 (stereo not shown)")
"3.40E−09"

Shift focus to the following entry.
Entry under review: COc1c(C)cc2c(c1O)[C@@H]1[C@@H]3[C@@H]4SC[C@]5(N[C@@H](CN)Cc6c5oc5ccccc65)C(=O)OC[C@@H](c5c6c(c(C)c(OC(C)=O)c54)OCO6)N3[C@@H](C#N)[C@H](C2)N1C . Reported TGI? 2.77E−09

Numbers sourced from patent US10538535B2.
